Molecular target: Fructose-bisphosphate aldolase (Mycobacterium tuberculosis)
Sequence (P9WQA3 whole entry): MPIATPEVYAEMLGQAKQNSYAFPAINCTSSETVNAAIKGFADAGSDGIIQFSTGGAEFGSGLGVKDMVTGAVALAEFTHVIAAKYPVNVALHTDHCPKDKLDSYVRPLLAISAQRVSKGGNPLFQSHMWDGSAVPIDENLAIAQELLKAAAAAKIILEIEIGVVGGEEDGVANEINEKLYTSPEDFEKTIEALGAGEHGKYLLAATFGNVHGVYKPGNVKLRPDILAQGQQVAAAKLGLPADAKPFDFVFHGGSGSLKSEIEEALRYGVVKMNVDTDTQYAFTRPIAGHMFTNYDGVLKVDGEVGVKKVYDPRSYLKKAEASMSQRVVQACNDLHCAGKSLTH
Assay: Fluorescence-based biochemical high throughput dose response assay for inhibitors of the fructose-bisphosphate aldolase (FBA) of M. tuberculosis.
Assay type: functional
Active and inactive are the calls of the source. No rule for the calls is given here.
Answer each item with its documented IC50.

Given the compound `CCCCN=C(S)N(CCN(CC)CC)Cc1cc2cc3c(cc2nc1O)OCO3` , write its reported IC50.
2440 nM (active)

Given the compound `CC(C)(CNC(=O)c1cc(-c2ccc(Cl)s2)nc2ccccc12)N1CCOCC1` , write its reported IC50.
1590 nM (active)

Given the compound `Cc1nnsc1-c1nc2ccccc2[nH]1` , write its reported IC50.
1400 nM (active)

Given the compound `Cn1c(-c2cccs2)nc2ccccc21` , write its reported IC50.
1480 nM (active)

* * *

Answer each item with its documented IC50.
Molecular target: G-protein coupled receptor 55 (Homo sapiens, UniProt Q9Y2T6)
Sequence (Q9Y2T6 whole entry): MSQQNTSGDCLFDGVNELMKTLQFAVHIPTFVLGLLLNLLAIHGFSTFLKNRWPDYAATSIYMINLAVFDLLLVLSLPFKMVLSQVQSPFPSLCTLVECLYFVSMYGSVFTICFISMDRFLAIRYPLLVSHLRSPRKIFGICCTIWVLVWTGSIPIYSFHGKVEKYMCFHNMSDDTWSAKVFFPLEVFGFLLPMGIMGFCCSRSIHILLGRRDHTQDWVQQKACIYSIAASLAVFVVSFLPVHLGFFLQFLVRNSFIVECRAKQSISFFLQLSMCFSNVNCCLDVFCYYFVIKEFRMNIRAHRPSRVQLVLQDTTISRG
Assay: inhibition of LPI-stimulated GPR55 beta-arrestin translocation – imaging, U2OS, beta-arrestin-GFP, LPI agonist, primary screen (AID 2013);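 also: antagonist potency measured as reduced agonist-driven arrestin aggregation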
Format: functional
Calls of active or inactive are those of the source. The rule behind the calls is not given here.

Given the molecule `CC(C)(CNC(=O)c1ccc([N+](=O)[O-])c(Cl)c1)CNC(=O)c1ccc([N+](=O)[O-])c(Cl)c1` , write its reported IC50.
3.11 µM (active)

Given the molecule N#CC1=C2N=C(N)c3ccccc3N2C2=C(C(=O)CCC2)C1c1cccc(Cl)c1 (centres undefined) , write its reported IC50.
8.48 µM (active)

Given the molecule `CCOC(=O)c1c(C(C)(C)C)oc2ccc(O)cc12` , write its reported IC50.
4.47 µM (active)

Given the molecule `O=C(NC(=S)Nc1ccccc1N1CCOCC1)c1ccc(Br)cc1` , write its reported IC50.
1.08 µM (active)

* * *

Molecular target: High affinity choline transporter 1 (Homo sapiens, UniProt Q9GZV3)
Sequence (Q9GZV3 whole entry): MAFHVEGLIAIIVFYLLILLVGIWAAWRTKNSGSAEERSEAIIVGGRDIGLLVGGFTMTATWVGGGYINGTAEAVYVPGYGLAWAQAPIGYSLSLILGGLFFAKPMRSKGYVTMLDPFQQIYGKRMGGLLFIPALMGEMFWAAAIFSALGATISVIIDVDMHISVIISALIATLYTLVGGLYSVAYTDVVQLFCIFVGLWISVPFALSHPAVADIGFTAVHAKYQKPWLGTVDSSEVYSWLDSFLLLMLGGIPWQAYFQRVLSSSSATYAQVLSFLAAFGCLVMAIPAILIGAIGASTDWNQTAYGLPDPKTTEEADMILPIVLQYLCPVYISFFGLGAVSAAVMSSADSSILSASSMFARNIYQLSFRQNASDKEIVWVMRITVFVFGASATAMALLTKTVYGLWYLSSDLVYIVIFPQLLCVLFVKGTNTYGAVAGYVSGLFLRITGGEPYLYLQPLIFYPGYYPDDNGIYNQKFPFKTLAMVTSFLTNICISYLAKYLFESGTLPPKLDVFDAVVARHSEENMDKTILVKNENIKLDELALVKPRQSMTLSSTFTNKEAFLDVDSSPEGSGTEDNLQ
Test: human choline transporter blockers, potency – cell-based, 5-point CRC, membrane potential dye, dose response (AID 504840)
Type: functional
Activity calls are given as the source filed them. How the calls were made is not given here.
Answer each item with its documented IC50.

Given the compound `CC(C)CC(=O)N=c1nc(S)ss1` , write its reported IC50.
3.02 µM (active)

Given the compound Cc1ccc(-c2cccc(CN3CCN(C(C)C)C(CCO)C3)c2)o1 (stereo unspecified) , write its reported IC50.
7.85 µM (active)

Given the compound O=c1c2ccccc2nnn1CSc1nc2sc3c(c2c(=O)n1CC1CCCO1)CCC3 (stereo unspecified) , write its reported IC50.
15.8 µM (active)

Given the compound `Cc1ccc(SCC2=NN(c3nc(C)cc(C)n3)C(=O)C2)cc1` , write its reported IC50.
10.5 µM (active)

Given the compound `COc1cccc(C(=O)C(C#N)=C(SC)SC)c1` , write its reported IC50.
11.2 µM (active)

Given the compound O=C(N/N=C/C1CC=CCC1)c1cc(-c2cccnc2)nc2ccccc12 (stereo unspecified) , write its reported IC50.
15.1 µM (active)

* * *

Answer each item with its documented IC50.
Biological target: Genome polyprotein (dengue virus type 2, UniProt P29990)
Sequence (P29990 2492-3391 limits assumed): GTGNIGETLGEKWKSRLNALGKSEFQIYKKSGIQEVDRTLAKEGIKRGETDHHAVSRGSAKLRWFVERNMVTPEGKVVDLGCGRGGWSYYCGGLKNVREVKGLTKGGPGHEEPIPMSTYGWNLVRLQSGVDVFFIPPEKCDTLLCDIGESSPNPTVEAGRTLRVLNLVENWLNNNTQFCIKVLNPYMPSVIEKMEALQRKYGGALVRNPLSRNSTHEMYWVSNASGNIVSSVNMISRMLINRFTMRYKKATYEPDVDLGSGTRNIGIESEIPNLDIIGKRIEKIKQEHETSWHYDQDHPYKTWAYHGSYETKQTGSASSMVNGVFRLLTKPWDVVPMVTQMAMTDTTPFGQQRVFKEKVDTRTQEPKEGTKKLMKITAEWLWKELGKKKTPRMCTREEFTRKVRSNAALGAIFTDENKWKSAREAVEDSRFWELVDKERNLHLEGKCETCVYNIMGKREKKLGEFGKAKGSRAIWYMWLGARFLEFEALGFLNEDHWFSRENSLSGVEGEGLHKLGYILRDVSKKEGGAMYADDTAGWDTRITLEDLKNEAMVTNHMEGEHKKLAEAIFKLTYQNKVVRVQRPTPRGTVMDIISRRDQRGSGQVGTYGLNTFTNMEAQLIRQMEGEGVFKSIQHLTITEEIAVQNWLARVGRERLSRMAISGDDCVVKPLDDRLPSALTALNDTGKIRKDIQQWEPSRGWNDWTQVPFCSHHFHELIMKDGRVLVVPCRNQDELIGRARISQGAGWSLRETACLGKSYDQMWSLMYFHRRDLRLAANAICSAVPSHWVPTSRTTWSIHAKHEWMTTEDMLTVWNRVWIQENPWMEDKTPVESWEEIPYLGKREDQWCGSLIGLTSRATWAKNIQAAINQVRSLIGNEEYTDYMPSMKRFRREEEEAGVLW
Assay: flavivirus cap methylation enzyme inhibition – biochemical, confirmation dose response, primary screen (AID 588689)
Format: functional
The source made the active and inactive calls. How the calls were made is not given here.

Given the molecule `O=C(Nc1sc2c(c1C(=O)O)CCCC2)c1cccc(Cl)c1` , write its reported IC50.
71.8 µM (active)

Given the molecule `CCOc1cc(/C=N/Nc2ccc(S(=O)(=O)Nc3ccccc3C(=O)O)cc2[N+](=O)[O-])cc(Cl)c1O` , write its reported IC50.
30.4 µM (active)

Given the molecule `CC1=C(O)C(O)=C(C2=C(O)C(O)=C(C)C(=O)C2=O)C(=O)C1=O` , write its reported IC50.
28.3 µM (active)

Given the molecule `Cc1c(N=C2C=C(Br)C(=O)C(Br)=C2)c(=O)n(-c2ccccc2)n1C` , write its reported IC50.
82.5 µM (active)

Given the molecule `O=C(O)CN1C(=O)/C(=C2\C(=O)N(Cc3ccccc3Cl)c3ccccc32)SC1=S` , write its reported IC50.
28.2 µM (active)
